Biological target: KV10.1 (Homo sapiens)
Construct: expressed in transfected cells
Sequence (O95259 1-962 isoform O95259-2): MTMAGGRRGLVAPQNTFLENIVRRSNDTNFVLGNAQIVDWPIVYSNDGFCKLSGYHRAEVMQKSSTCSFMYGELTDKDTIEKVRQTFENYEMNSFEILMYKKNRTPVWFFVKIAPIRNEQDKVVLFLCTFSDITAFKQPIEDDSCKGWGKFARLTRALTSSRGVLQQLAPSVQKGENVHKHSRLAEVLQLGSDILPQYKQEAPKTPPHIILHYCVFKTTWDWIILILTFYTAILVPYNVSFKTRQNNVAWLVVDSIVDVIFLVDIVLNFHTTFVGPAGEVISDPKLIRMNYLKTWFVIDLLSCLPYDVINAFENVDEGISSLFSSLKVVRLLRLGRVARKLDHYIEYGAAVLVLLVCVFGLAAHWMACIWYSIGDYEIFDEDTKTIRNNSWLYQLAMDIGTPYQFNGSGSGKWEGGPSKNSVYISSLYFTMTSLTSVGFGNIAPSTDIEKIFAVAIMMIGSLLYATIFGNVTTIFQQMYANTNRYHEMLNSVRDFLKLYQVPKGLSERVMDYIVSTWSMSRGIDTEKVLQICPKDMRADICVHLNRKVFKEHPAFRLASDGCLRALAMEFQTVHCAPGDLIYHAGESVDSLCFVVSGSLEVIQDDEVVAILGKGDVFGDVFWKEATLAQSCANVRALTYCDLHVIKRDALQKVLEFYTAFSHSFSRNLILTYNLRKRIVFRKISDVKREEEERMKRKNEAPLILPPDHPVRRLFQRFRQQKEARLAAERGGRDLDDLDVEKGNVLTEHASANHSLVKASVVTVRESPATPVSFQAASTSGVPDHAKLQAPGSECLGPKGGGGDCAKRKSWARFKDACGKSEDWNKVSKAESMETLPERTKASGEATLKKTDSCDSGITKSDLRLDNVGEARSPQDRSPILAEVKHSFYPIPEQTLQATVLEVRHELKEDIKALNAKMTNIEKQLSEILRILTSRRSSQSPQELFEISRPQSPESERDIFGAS
Test: Whole-cell patch clamp on HEK-293 cells stably expressing KV10.1
Type: cell-based
Settings: same IC50 in presence and absence of 500 nM astemizole; end of 500 ms pulse to +40 mV; read-out: IC50 Kv10.1, competition with astemizole
value_type: pIC50
Numbers only, as −log10 of the molar value.

Lookup: Need pIC50, item CN(C)CC(O)COc1ccc(Nc2ccc(C(F)(F)F)cc2[N+](=O)[O-])cc1 (stereo not shown)
Found: 5.77

---

Record form. Attribute: IC50. Fill in for each entry.
Biological target: UniProtKB Q12809
Sequence (Q12809 whole entry): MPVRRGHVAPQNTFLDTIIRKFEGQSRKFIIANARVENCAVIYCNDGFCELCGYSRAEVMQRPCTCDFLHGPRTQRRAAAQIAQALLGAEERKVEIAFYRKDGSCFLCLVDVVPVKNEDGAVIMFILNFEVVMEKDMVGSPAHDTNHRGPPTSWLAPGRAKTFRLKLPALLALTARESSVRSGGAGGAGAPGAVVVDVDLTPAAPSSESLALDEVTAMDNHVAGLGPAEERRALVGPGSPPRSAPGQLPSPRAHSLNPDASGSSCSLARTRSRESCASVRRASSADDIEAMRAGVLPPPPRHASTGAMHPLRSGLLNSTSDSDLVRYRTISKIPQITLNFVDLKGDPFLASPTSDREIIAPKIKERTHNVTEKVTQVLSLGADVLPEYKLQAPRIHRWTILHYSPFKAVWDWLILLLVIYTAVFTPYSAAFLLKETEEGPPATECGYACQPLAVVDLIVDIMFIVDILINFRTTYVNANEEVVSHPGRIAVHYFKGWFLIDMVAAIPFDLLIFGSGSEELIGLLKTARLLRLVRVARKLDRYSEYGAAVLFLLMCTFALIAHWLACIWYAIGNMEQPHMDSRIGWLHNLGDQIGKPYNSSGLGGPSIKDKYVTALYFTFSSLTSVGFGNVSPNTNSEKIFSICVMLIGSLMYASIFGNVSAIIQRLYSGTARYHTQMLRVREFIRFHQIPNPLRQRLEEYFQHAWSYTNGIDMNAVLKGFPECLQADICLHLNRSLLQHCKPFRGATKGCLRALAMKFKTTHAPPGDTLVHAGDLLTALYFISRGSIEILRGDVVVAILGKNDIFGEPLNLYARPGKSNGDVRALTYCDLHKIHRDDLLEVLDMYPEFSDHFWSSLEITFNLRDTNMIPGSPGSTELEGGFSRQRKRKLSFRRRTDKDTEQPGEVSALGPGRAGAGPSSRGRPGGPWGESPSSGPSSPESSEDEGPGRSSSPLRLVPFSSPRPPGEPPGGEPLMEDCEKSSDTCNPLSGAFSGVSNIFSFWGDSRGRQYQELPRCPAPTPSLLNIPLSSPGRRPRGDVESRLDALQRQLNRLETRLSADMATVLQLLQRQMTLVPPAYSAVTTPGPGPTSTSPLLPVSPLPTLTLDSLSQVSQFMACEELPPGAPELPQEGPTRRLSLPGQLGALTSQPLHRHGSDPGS
Assay: Whole-cell patch clamp on stably transfected HEK-293 cells, hERG tail current
Conditions: peak tail current at −40 mV after +20 mV

> print(dat)
                                   compound  value.type  result
1  O=[N+]([O-])c1cc(C(F)(F)F)ccc1Nc1ccc(OCC(O)CN2CCOCC2)cc1 (stereo not drawn)        IC50  156 nM
2  CN(C)CCCOc1ccc(Nc2ccc(C(F)(F)F)cc2[N+](=O)[O-])cc1        IC50  207 nM

Lookup: What IC50 value was documented for this compound, CN(C)CC(O)COc1ccc(Nc2ccc(C(F)(F)F)cc2[N+](=O)[O-])cc1 (stereo not drawn) ?
Found: 194 nM

This collection of values is drawn from paper PMC8002023.
